Tested on: bladder epithelium
TEST_PROTOCOL: Effect of chemical agent pretreatment on adenovirus-mediated gene transfer and expression (Ad-βgal, X-gal staining)
Format: in vivo, mouse (BALB/c)
Structures can show the parent of a compound that is named as a salt.
READOUT_KIND: response class (level of transduction)

1) CCCCCCCCCCCCc1ccc(S(=O)(=O)[O-])cc1.[Na+]: strongest response
2) OC[C@H]1O[C@H](O[C@H]2[C@H](O)[C@@H](O)[C@H](OCCCCCCC3CCCCC3)O[C@@H]2CO)[C@H](O)[C@@H](O)[C@@H]1O [6-cyclohexylhexyl-β-D-maltoside]: strongest response
3) CCCCCCCCCCCCO[C@@H]1O[C@H](CO)[C@@H](O[C@H]2O[C@H](CO)[C@@H](O)[C@H](O)[C@H]2O)[C@H](O)[C@H]1O [n-dodecyl β-D-maltoside, n-dodecyl-β-D-maltoside]: strongest response
4) CCCCCCCCCCCCOS(=O)(=O)O [Sodium dodecyl sulfate, sodium dodecyl sulfate]: strongest response
